# tested-target: LGR8 (RXFP2) (Homo sapiens, UniProt Q8WXD0)
# Sequence (Q8WXD0 whole entry): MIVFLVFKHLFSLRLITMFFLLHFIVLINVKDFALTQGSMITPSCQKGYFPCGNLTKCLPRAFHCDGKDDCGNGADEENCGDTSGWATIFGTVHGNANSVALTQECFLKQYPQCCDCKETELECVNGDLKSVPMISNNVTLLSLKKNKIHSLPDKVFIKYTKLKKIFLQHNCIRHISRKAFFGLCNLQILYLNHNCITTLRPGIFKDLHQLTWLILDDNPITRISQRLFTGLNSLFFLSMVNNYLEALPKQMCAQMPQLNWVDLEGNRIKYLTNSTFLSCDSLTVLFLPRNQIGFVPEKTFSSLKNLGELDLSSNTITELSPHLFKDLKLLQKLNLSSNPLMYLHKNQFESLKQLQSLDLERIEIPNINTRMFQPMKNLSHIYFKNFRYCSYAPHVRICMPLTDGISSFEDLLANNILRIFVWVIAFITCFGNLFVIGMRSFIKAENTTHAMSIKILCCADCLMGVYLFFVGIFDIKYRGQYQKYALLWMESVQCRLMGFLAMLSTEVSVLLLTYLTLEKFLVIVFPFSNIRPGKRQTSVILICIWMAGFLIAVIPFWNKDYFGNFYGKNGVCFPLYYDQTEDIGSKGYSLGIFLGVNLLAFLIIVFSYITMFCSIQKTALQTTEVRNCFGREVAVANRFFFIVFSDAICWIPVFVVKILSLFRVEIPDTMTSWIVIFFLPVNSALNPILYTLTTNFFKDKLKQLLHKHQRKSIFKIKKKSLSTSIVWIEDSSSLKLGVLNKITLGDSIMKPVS
# assay: Competition with Europium labelled INSL3 binding to HEK-293T cells expressing LGR8
# Parameters: expressed in transfected cells
# test-context: LGR8 HEK-293T; 0.01 nM-10 μM; FIG. 10
No end group written: not given here.

{"substance": "GQKGQVGPPGAAVRRAYAAFSV-Amide (GQKGQVGPPGAAVRRAYAAFSV-NH2) [P59C13V-Amide]", "effect on binding of Europium-INSL3": "less apparent"}
{"substance": "GQKGQVGPPGAAVRRAYAAFSVGRRAYAAFSV-OH [Peptide P74C13V]", "effect on binding of Europium-INSL3": "less apparent"}
{"substance": "AYAAFSV-Amide (AYAAFSV-NH2) [Peptide P59-S-Amide]", "effect on binding of Europium-INSL3": "less apparent"}

src = patent US8492329B2
